target: DRB1*0301 (Homo sapiens, UniProt P01903+P01911, A100K/A102G/A103R/A169T/F55Y/I96L/K41T/L162R/M171V/P40S/Q125H/Q178H/Q39Y/R42S/S66N/T106N/T262R/W38E/Y61H); assay: biochemical; assay type: binding
Sequence (P01903 26-254 limits assumed, other chains not shown): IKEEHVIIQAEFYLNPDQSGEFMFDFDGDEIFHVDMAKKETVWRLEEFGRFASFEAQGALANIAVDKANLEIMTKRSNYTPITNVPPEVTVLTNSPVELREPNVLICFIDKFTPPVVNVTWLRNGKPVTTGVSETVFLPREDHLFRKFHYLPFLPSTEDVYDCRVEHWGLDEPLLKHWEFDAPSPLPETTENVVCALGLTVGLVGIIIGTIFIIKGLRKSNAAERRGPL
pIC50: −log10 of the molar value. No end group written: not given here.
Quick rule: pIC50 of at least 6 means True, below that means False.

polymer-sequence: RYRFQKYKTLFVDVT [Peptide 90.0019]
assigned-category: False

polymer-sequence: FKKFLKGIPKKSCML [Peptide 89.0073]
assigned-category: False

polymer-sequence: KHIRLLECVLMYKARE [Peptide 1601.44]
assigned-category: True

polymer-sequence: DSVDSVNCGVISAAA [Peptide 1601.24]
assigned-category: False

polymer-sequence: ETCMLIQPPKLRSSV [Peptide 89.0029]
assigned-category: False

polymer-sequence: KVAMLDDATHTCWTY [Peptide 90.0105]
assigned-category: True

polymer-sequence: LKVLIKQHSLYTHLQ [Peptide 89.0061]
assigned-category: False

polymer-sequence: KNRLTVAKLMSNLLS [Peptide 89.0064]
assigned-category: False

polymer-sequence: QERPRKLPQLCTELQ [Peptide 1543.22]
assigned-category: False

polymer-sequence: EDEIDTDLDGFIDDS [Peptide 90.0126]
assigned-category: True

polymer-sequence: GRVNTHVHNPLLCSS [Peptide 1601.34]
assigned-category: False

polymer-sequence: VTVFTFPHAFPFDKN [Peptide 89.0092]
assigned-category: False

polymer-sequence: YFKYFKEDAKKYSKT [Peptide 90.0253]
assigned-category: True

polymer-sequence: DGVSHAQLPARRAEP [Peptide 1543.18]
assigned-category: False

polymer-sequence: DWCVAAFGVTGTVAE [Peptide 89.0042]
assigned-category: False

polymer-sequence: PCHTTKLLHRDSVDS [Peptide 1601.07]
assigned-category: False

polymer-sequence: TYISTSQRDDFLNTV [Peptide 1601.27]
assigned-category: True
